# condition label: in ethanol, 303.15 K
measured attribute: solubility (mole fraction)

> print(dat)
          molecule  test.result
1  CCc1occc(=O)c1O       0.0974

---

# condition label: in water, 323.15 K
measured attribute: solubility (mole fraction)

> print(dat)
          molecule          measured.attribute  test.result
1  CCc1occc(=O)c1O  solubility (mole fraction)       0.0067

---

# condition label: in water, 303.15 K
measured attribute: solubility (mole fraction)

> print(dat)
          molecule  test.result
1  CCc1occc(=O)c1O       0.0027

---

# condition label: in ethanol, 293.15 K
measured attribute: solubility (mole fraction)

> print(dat)
          molecule  test.result
1  CCc1occc(=O)c1O       0.0599

---

# condition label: in water, 298.15 K
measured attribute: solubility (mole fraction)

> print(dat)
          molecule  test.result
1  CCc1occc(=O)c1O       0.0023

---

# condition label: in ethanol, 308.15 K
measured attribute: solubility (mole fraction)

> print(dat)
          molecule  test.result
1  CCc1occc(=O)c1O        0.133

---

# condition label: in water, 328.15 K
measured attribute: solubility (mole fraction)

> print(dat)
          molecule  test.result
1  CCc1occc(=O)c1O       0.0089

---

# condition label: in ethanol, 333.15 K
measured attribute: solubility (mole fraction)

> print(dat)
          molecule          measured.attribute  test.result
1  CCc1occc(=O)c1O  solubility (mole fraction)        0.459

---

# condition label: in water, 308.15 K
measured attribute: solubility (mole fraction)

> print(dat)
          molecule          measured.attribute  test.result
1  CCc1occc(=O)c1O  solubility (mole fraction)       0.0033

---

# condition label: in ethanol, 323.15 K
measured attribute: solubility (mole fraction)

> print(dat)
          molecule  test.result
1  CCc1occc(=O)c1O        0.291

---

# condition label: in ethanol, 313.15 K
measured attribute: solubility (mole fraction)

> print(dat)
          molecule          measured.attribute  test.result
1  CCc1occc(=O)c1O  solubility (mole fraction)        0.174

# credit: BigSolDB 2.1
